Origin of values: patent US10323061B2

# system.name: human FXR (NR1H4) (Homo sapiens, UniProt Q96RI1)
# Construct: host or cells: CHO (Chinese hamster ovary) cells
# Sequence (Q96RI1 1-486): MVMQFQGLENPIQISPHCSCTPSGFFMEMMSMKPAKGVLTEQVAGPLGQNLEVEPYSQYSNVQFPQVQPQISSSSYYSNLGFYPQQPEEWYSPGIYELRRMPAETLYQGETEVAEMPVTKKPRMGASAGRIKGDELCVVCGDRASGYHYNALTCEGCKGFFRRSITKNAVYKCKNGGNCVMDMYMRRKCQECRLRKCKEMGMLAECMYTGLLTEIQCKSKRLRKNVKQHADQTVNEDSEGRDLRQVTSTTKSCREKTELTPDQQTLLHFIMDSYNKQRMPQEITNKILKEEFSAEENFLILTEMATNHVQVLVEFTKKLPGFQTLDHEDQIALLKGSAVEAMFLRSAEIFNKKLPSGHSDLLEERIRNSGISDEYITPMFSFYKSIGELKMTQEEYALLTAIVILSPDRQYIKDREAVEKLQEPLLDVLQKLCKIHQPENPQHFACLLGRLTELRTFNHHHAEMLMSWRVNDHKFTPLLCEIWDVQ
# protocol: Human FXR (NR1H4) Assay (Gal4 promoter driven luciferase reporter, Indigo Bioscience kit IB00601)
# Assay type: cell-based
# assay.context: normalized to CDCA set as 100%; CHO reporter cells expressing human NR1H4
# Procedure: Assays Human FXR (NR1H4) Assay Determination of a ligand mediated Gal4 promoter driven transactivation to quantify ligand binding mediated activation of FXR. […] The principal application of this reporter assay system is to quantify functional activity of human FXR. […] Luminescence intensity of the reaction is quantified using a plate-reading luminometer, Envision. […] Cells were incubated for additional 22 hours before luciferase activities were measured. […] Read time may be 0.5 second (500 mSec) per well.
# Efficacy (%) listing for each entry below

{"chemical.string": "CC[C@H]1[C@@H](O)[C@@H]2[C@H](CC[C@]3(C)[C@@H]([C@H](C)CCc4nnc(C(C)(C)C)s4)CC[C@@H]23)[C@@]2(C)CC[C@@H](O)C[C@@H]12", "Efficacy (%)": "314%"}
{"chemical.string": "CC[C@H]1[C@@H](O)[C@@H]2[C@H](CC[C@]3(C)[C@@H]([C@H](C)CCc4nnc(C5CC5)[nH]4)CC[C@@H]23)[C@@]2(C)CC[C@@H](O)C[C@@H]12", "Efficacy (%)": "168%"}
{"chemical.string": "CC[C@H]1[C@@H](O)[C@@H]2[C@H](CC[C@]3(C)[C@@H]([C@H](C)Cc4nnc(NS(=O)(=O)N(C)C)[nH]4)CC[C@@H]23)[C@@]2(C)CC[C@@H](O)C[C@@H]12", "Efficacy (%)": "234%"}
{"chemical.string": "CC[C@H]1[C@@H](O)[C@@H]2[C@H](CC[C@]3(C)[C@@H]([C@H](C)CCc4nnc(C5CC5)o4)CC[C@@H]23)[C@@]2(C)CC[C@@H](O)C[C@@H]12", "Efficacy (%)": "304%"}
{"chemical.string": "CC[C@H]1[C@@H](O)[C@@H]2[C@H](CC[C@]3(C)[C@@H]([C@H](C)CCc4nnc(C5CC5)s4)CC[C@@H]23)[C@@]2(C)CC[C@@H](O)C[C@@H]12", "Efficacy (%)": "369%"}
